assay: Single dose PK in healthy subjects (Cohorts 1, 2, S1 and S2), plasma; format: in vivo, human; settings: human, plasma, intravenous, 112 mg; 6 hr; read-out: Plasma concentration, Mean
Excerpt: […]
quantityName: concentration at 6 h

Fill in: concentration at 6 h of COC(=O)N1CCC[C@H](NS(C)(=O)=O)[C@@H]1CO[C@H]1CC[C@@H](c2ccccc2)CC1 [Compound A] is ___
189 ng/mL

----------
test: Single dose PK in healthy subjects (Cohorts 1, 2, S1 and S2), plasma; type: in vivo, human; settings: human, plasma, intravenous, 28 mg; 2 hr; read-out: Plasma concentration, Q1
Description: […]
quantityName: concentration at 2 hr (ng/mL)
Supply the numeric figure in ng/mL, leaving out any unit text.

Which concentration at 2 hr value is on record for "COC(=O)N1CCC[C@H](NS(C)(=O)=O)[C@@H]1CO[C@H]1CC[C@@H](c2ccccc2)CC1" ?
45.5

----------
assay: Single dose PK in healthy subjects (Cohorts 1, 2, S1 and S2), plasma; assay type: in vivo, human; conditions: human, plasma, intravenous, 7 mg; 0.5 hr After End of Infusion; read-out: Plasma concentration, Q1
quantityName: concentration at 0.5 h after end of infusion (ng/mL)
Quick note: give the figure in ng/mL, leave out the unit.

Entry under review: "COC(=O)N1CCC[C@H](NS(C)(=O)=O)[C@@H]1CO[C@H]1CC[C@@H](c2ccccc2)CC1" . Reported concentration at 0.5 h after end of infusion?
6.26

----------
assay: Single dose PK in healthy subjects (Cohorts 1, 2, S1 and S2), plasma; assay type: in vivo, human; settings: human, plasma, intravenous, 7 mg; 3 hr; read-out: Plasma concentration, Q3
quantityName: concentration at 3 h (ng/mL)
Give your result in ng/mL as a bare value.

So what's the measured concentration at 3 h for this one? "COC(=O)N1CCC[C@H](NS(C)(=O)=O)[C@@H]1CO[C@H]1CC[C@@H](c2ccccc2)CC1"
18.8

----------
assay: Single dose PK in healthy subjects (Cohorts 1, 2, S1 and S2), plasma; type: in vivo, human; details: human, plasma, intravenous, 7 mg; 1.5 hr; read-out: Plasma concentration, Q1
quantityName: concentration at 1.5 hr

Reported concentration at 1.5 hr for "COC(=O)N1CCC[C@H](NS(C)(=O)=O)[C@@H]1CO[C@H]1CC[C@@H](c2ccccc2)CC1" : what is it?
12 ng/mL

----------
experiment: Plasma concentrations in healthy subjects (Cohort 4); type: in vivo; details: human, intravenous, 112 mg, 2 hr, Median
quantityName: concentration at 2 h (ng/mL)
# value in ng/mL; strip the unit string

Return reported concentration at 2 h; argument: "COC(=O)N1CCC[C@H](NS(C)(=O)=O)[C@@H]1CO[C@H]1CC[C@@H](c2ccccc2)CC1"
183

----------
assay: Single dose PK in healthy subjects (Cohorts 1, 2, S1 and S2), plasma; format: in vivo, human; conditions: human, plasma, iv, 134.4 mg, 134.4 mg single IV infusion, healthy subjects; read-out: AUC24 Geo Mean
quantityName: AUC (ng·h/mL)
Provide only the numeric value, understood in ng·h/mL.

Requested read-out: AUC. Entry: "COC(=O)N1CCC[C@H](NS(C)(=O)=O)[C@@H]1CO[C@H]1CC[C@@H](c2ccccc2)CC1"
2660
